B1: KLHL12 (parent)
chain: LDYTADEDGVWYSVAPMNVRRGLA

# Variants of: B1
# TEST: protein stability index of a GFP-peptide fusion (GPS, HEK-293T) (PSI 1-6); higher = more stable;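 also: lentivirally expressed fusions sorted by FACS into six bins by GFP to DsRed ratio, PSI derived from sequencing read proportions per bin multiplied by bin number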
# COND: c terminus: a fixed tail appended
METRIC: protein stability index
In your answer, state the number alone without any accompanying words.

| MUTATION ANNOTATION | protein stability index |
| --- | --- |
| Y12G | 2.84 |
| M17E | 2.59 |
| E7M | 1.91 |
| A24V | 2.26 |

// protein stability index lookup, variant = S13I , result: 1.43

// protein stability index lookup, variant = G9S , result: 2.03
